// provenance: PubChem BioAssay (NCI)

Tested on: SF-295 CNS
test.name: NCI tumour cell line growth inhibition, 48 h
Would you mind telling me the reported TGI of each entry?
One number for each entry, in µM.

Past entries and their recorded results:
Kindly note the recorded TGI for `Cc1ncc(C(=O)Nc2ccc(CN3CCN(C)CC3)c(C(F)(F)F)c2)cc1C#Cc1cnc(N)c2ccncc12` , which is 2.93

compound `CN=C(N=Nc1c(O)[nH]c2ccccc12)SCC(=O)c1ccc(Br)cc1` , TGI observed: 49.6

So for `CNCC#Cc1c(F)ccc2c1/C(=C/c1[nH]ccc1OC)C(=O)N2` , the logged TGI turned out to be 3.55

Field: next compound
Data point: CC(=O)Oc1c2c(c(O)c3ccccc13)C(n1cnc3c(ncn3C3OC(CO)C4OC(C)(C)OC43)c1=N)CCC2 (centres undefined) ; TGI = 27

---

System: HCT-15 colon
test.name: NCI tumour cell line growth inhibition, 48 h
attribute.measured: TGI

Example results:
GET /value?item= O=C1/C(=C/c2ccc(Cl)cc2)CCC1CCN1CCOCC1 (centres undefined) &field=TGI returns > 100 µM

C#C[C@]1(O)CCC2C3CCc4cc(O)ccc4C3CC[C@@]21C (some centres undefined) has a reported TGI of 73 µM

Entry `O=c1cnn(C/C=C/CO)c(=O)[nH]1` ; TGI = > 100 µM

Short answer for `CCOC(=O)Nc1ccc(C)c(NC(=O)OCC)c1` : TGI was > 100 µM

Noted for `CCOC(=O)CC[C@H](NC(=O)[C@H](N)Cc1ccc(N(CCCl)CCCl)cc1)C(=O)OCC` : its TGI reads > 55.7 µM

Per the records, this molecule ( CC1CCC(C(C)C)C(OC(=O)NCn2cc(-c3ccccc3)nn2)C1 (centres undefined) ) has TGI equal to > 100 µM

For each of the molecules below, note its TGI.
1. Cn1c(=O)n(C2(C)C[Se]C2)c2ccccc21
2. Clc1ccc(C2C3COc4ccccc4C3=NN2c2ccccc2)cc1 (centres undefined)
3. CN(C)CCC(=O)c1ccccc1
4. CS(=O)(=O)CCNCc1nc(-c2ccc3ncnc(Nc4ccc(OCc5cccc(C(F)(F)F)c5)cc4)c3c2)cs1
5. COc1cc(-n2cc(-c3ccc(F)cc3)[nH]c2=O)cc(OC)c1OC
6. CN1CCOC(c2ccccc2)O1 (centres undefined)

Reply |
1: > 100 µM; 2: > 100 µM; 3: 46.9 µM; 4: > 25 µM; 5: > 100 µM; 6: > 100 µM

Hey, can you go through the list below and give me TGI for every item?
1. CN(C)CC1CCCC/C1=N/OC(=O)c1ccc(Cl)cc1 (centres undefined)
2. NCCNc1c2c(c(NCCN)c3[nH]ccc13)C(=O)c1ccccc1C2=O

Reply |
1: > 100 µM; 2: 14.8 µM

---

So I've got a bunch of compounds here, and I need their TGI values.
Tested on: UACC-257 melanoma
test.name: NCI tumour cell line growth inhibition, 48 h

In the examples that follow, each entry is paired with its recorded TGI.
Entry under test: `N#C/C1=C(\N)CCSSSC1` . Its TGI was > 100 µM

TGI reading for CC1CN(C(=O)CN2CCC(CCCCN(C)C)CC2)c2ccccc2NC1=O (stereo not drawn) : > 100 µM

For `O=C(N[C@@H](c1ccc(Cl)c(Cl)c1)C1CNC1)c1ccc2cnccc2c1` the compound record lists TGI as 4.84 µM

Record CCN1CCC(O)(c2ccc(OC)cc2)C(C(=O)c2ccc(OC)cc2)C1 (stereo not drawn) , field TGI: 48 µM

Sure, the documented TGI for O=C1OCC2=C1C(c1cccc(Br)c1)c1cc3c(cc1N2CCO)CCC3 (stereo not drawn) is 8.12 µM

So for Clc1ccc(C2C3COc4ccccc4C3=NN2c2ccccc2)cc1 (stereo not drawn) , the logged TGI turned out to be > 100 µM

# return TGI for each item in the list
1. CC(C)=CC[C@]12CCN[C@H]1N(S(=O)(=O)c1ccccc1)c1ccccc12
2. Cn1ccc(C(=O)NCCN(CCNC(=O)c2ccn(C)c(=O)c2O)CCNC(=O)c2cccc(=O)n2O)c(O)c1=O
3. COc1ccc(-c2nn(-c3ccc(NC(=O)c4ccc(Cl)c(Cl)c4)cc3)cc2-c2ccncc2)cc1Cl
4. CN1C2CCC1CC(=CCOC(c1ccc(F)cc1)c1ccc(F)cc1)C2

Reply |
1. 34.8 µM
2. > 100 µM
3. > 50 µM
4. 31.7 µM

// each compound listed below needs its TGI
1. O=c1[nH]nc(Cc2ccccc2)n1/N=C/c1ccccc1O
2. O=C(O)CCC(NC(=O)c1ccc(Nc2nc3cc(C(F)(F)F)ccc3nc2-c2ccccc2)cc1)C(=O)O (stereo not drawn)
3. O=C(O)Cc1cc(Cl)ccc1O
4. Nc1ncnc2c1ncn2[C@@H]1C[C@@H]1CO
5. CN(C)CCC(=O)c1ccccc1
6. S=c1sc2c(Cl)nc(Cl)nc2n1-c1ccccc1
7. CC1(CCOCc2ccccc2)NC(=O)NC1=O (stereo not drawn)

Reply |
["> 100 µM", "> 100 µM", "> 100 µM", "> 100 µM", "> 59 µM", "> 100 µM", "> 100 µM"]
